tgt: T1, Human GHR-Fc-10x His (extracellular region of human growth hormone receptor fused to human Fc) (human, UniProt P10912 50-256)
T1 construct: Captured by its 10x His-tag on a Ni-NTA sensor chip for SPR; not shown: human Fc domain of vector pAB1200 with its linker; 10x His-tag replacing the AviTag
T1 sequence (looked up): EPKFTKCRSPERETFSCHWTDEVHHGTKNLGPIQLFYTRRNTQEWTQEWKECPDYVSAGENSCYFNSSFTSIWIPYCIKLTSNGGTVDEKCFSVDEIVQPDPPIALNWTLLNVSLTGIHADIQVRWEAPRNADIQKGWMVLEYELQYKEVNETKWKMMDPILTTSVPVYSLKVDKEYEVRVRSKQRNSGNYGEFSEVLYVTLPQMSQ
assay overview: SPR, GHR-Fc-10xHis captured on Ni-NTA chip, Fab as analyte, 1:1 fit
I'd appreciate it if you could supply kon values for the items below.
Report the figure in M⁻¹ s⁻¹ without appending any unit label.

For the binder GHR10 Fab (Fab, V domains shown, Fab) VH: EVQLVESGGGLVQPGGSLRLSCAASGFNFSYYSIHWVRQAPGKGLEWVASISSYYGSTSYADSVKGRFTISADTSKNTAYLQMNSLRAEDTAVYYCARTEYSFGMYWAHTGMDYWGQGTLVTVSS VL: DIQMTQSPSSLSASVGDRVTITCRASQSVSSAVAWYQQKPGKAPKLLIYSASSLYSGVPSRFSGSRSGTDFTLTISSLQPEDFATYYCQQFWSSEPITFGQGTKVEIKR , what kon is on record?
425000

Input GHR6 Fab (Fab, V domains shown, Fab) VH: EVQLVESGGGLVQPGGSLRLSCAASGFNVYYSSIHWVRQAPGKGLEWVASIYSSYGYTSYADSVKGRFTISADTSKNTAYLQMNSLRAEDTAVYYCARGQWSGLSGYWEYKALDYWGQGTLVTVSS VL: DIQMTQSPSSLSASVGDRVTITCRASQSVSSAVAWYQQKPGKAPKLLIYSASSLYSGVPSRFSGSRSGTDFTLTISSLQPEDFATYYCQQVGGSSLITFGQGTKVEIKR
156000
